Origin of values: patent EP4700022A1

- ASSAY_PROCEDURE: Pharmacokinetic test in rats
- Assay type: in vivo
- MEASUREMENT_PARAMETERS: rat; male SD rats, intravenous administration (2.5 mg/kg), plasma
MEASURED_PARAMETER: clearance (mL/min/kg)
Dear colleague, please return just the value in mL/min/kg, with no unit written.

N#Cc1cc(CN2Cc3ccc(C(F)(F)F)cc3C2)cc2cc(C3CCN(C(=O)OC4CC4)CC3)oc12 [Compound 53]    11
O=C(N[C@H]1CC[C@H](CCOc2cc(CN3Cc4ccc(C5CC5)cc4C3)ccn2)CC1)C1CC1 [Compound 60]    6.8
[2H]C([2H])([2H])C(=O)N[C@H]1CC[C@H](CCOc2cc(CN3Cc4ccc(C(F)(F)F)cc4C3)ccn2)CC1 [Compound 62]    3.97
COc1cc(CN2Cc3ccc(C(F)(F)F)cc3C2)cc2cc(C3CCN(C(=O)OC4CC4)CC3)oc12 [Compound 54]    10.3

Item: O=C(N[C@H]1CC[C@H](CCOc2cc(CN3Cc4ccc(C(F)(F)F)cc4C3)ccn2)CC1)C1CC1 [Compound 65] | clearance: 17.4

get_value(item= O=C(N[C@H]1CC[C@H](CCOc2cc(CN3Cc4ccc(C(F)(F)F)cc4C3)ccn2)CC1)OC1CC1 [Compound 51] , readout=clearance) returns 9.32

The reported clearance of the compound O=C(OC1CC1)N1CCC(CCOc2cc(CN3Cc4ccc(C(F)(F)F)cc4C3)ccn2)CC1 [Compound 40] was 19.1
